Tested on: RPMI-8226 leukemia
Assay: NCI tumour cell line growth inhibition, 48 h
MEASUREMENT_NAME: log10(TGI) (log10 of the value in µM)

Cc1ccccc1NC(=O)CC(=O)n1nc(-c2ccccc2)c(N=Nc2ccc([N+](=O)[O-])cc2)c1-c1ccccc1 | 1.84
COC(=O)[C@]1(C)CC[C@]2(C)CC[C@]3(C)C(=CC(=O)[C@@H]4[C@@]5(C)CCC(=O)NC(C)(C)[C@@H]5CC[C@]43C)[C@@H]2C1 | 1.54
O=S1(=O)C=C(c2ccccc2)C(c2ccccc2)=C1 | 0.90
O=C1NC(=O)C2(CCc3ccc(N(CCCl)CCCl)cc32)N1 (stereo unspecified) | 2.00
CC(=O)Nc1cc(CN2CCCCC2)c(O)c2ncccc12 | 1.71
O=C1/C(=C/c2cccc(F)c2)CN(C(=O)C(Cl)Cl)C/C1=C\c1cccc(F)c1 | -0.77
CN1C(=O)C(C)(C)Oc2c(-c3cn(C)c(=O)c4[nH]ccc34)cc(S(C)(=O)=O)cc21 | 0.69
CN1CCN(Cc2ccc(NC(=O)c3[nH]ncc3Nc3cc(OC4CCCC4)ncn3)cc2)CC1 | 0.83
CSc1nc(Cl)c2c(n1)Sc1nc3ccccc3n1N=C2 | 1.78
COc1cc(OC)cc(Oc2nc3c(N)cc(C(F)(F)F)cc3nc2-c2ccccc2)c1 | 1.89
O=C(Nc1ccc(N2CCNCC2)cn1)c1[nH]ncc1Nc1ncnc2sc3c(c12)CCC3 | 0.76
Cc1ccc(C)c(C(=N)c2ccccc2Cc2ccccc2)c1 | 1.55
CC(=O)NC1=CC(=O)C=C(Cl)C1=O | 1.72
CCN(CC)c1ccc(N=C2C=CC(=C(C#N)C#N)c3ccccc32)c(C)c1 | 1.18
CC(=O)O[C@@H]1CN(S(=O)(=O)c2ccc(C)cc2)C[C@@H]1C1CCCCC1 | 1.83
CN1CCN(Cc2ccc(NC(=O)c3cncc(C#Cc4ncc5ccccn45)c3)cc2C(F)(F)F)CC1 | 0.62
CNCC1CCn2c(c(C3=C(c4cn(C)c5ccccc45)C(=O)NC3=O)c3ccccc32)C1 (stereo unspecified) | 0.99

###

System: SNB-19 CNS
Assay: NCI tumour cell line growth inhibition, 48 h
MEASUREMENT_NAME: TGI

C=C1CC(CC(=O)C(C)CC2CC(=C)C(=O)O2)OC1=O (stereo not given) | > 100 µM
CCCNC(=O)Nc1ccc2c(c1)Cc1cc(N(CCCl)CCCl)ccc1-2 | 94.8 µM
CN(C)c1ccc(/C=c2\sc3nnc(Cc4ccccc4)n3c2=O)cc1 | > 100 µM
CNCC1CCn2c(c(C3=C(c4cn(C)c5ccccc45)C(=O)NC3=O)c3ccccc32)C1 (stereo not given) | 16.3 µM
NC(N)=N/N=C/c1c(-c2ccc(Cl)cc2)nc2n1CCS2 | 32.6 µM

###

Listed here: items and their measured TGI.
Tested on: EKVX NSCLC
Assay: NCI tumour cell line growth inhibition, 48 h
MEASUREMENT_NAME: TGI

CCCCCCC(=O)CC(=O)C(=O)Nc1ccccc1C | > 100 µM
CC(=O)Nc1nc(C)c(-c2cc3c(c(S(C)(=O)=O)c2)C(=O)N([C@@H](C)C2CC2)C3)s1 | 79.9 µM
CC(=O)OC[C@]12CCC3[C@@]4(C)CCCC(C)(C)C4CC[C@@]3(C)C1CC(C1=CC(=O)OC1O)O2 (stereo not given in full) | 6.51 µM
CCOc1ccccc1NC(=O)C(=O)c1c(O)c2ccc(O)cc2oc1=O | > 100 µM
CCCNC(=O)Nc1ccc2c(c1)Cc1cc(N(CCCl)CCCl)ccc1-2 | 77.4 µM
CC1CC2(C)CC(=O)C1C1C(=O)N(CCN3CCOCC3)C(=O)C12 (stereo not given) | > 100 µM
OCC(O)C(OC1OC(CO)C(O)C(O)C1O)c1nn(-c2ccc(Cl)cc2)c2nc3cc(Cl)ccc3nc12 (stereo not given) | > 100 µM
CCN1CCC(O)(/C=C/c2ccc(Cl)cc2)C(C(=O)/C=C/c2ccc(Cl)cc2)C1 (stereo not given) | > 100 µM
CCN1C(=O)N(CC)C2C1NN=c1s/c(=C\c3cnc(C)n3C)c(=O)n12 (stereo not given) | > 100 µM
CCN(CC)c1ccc(N=C2C=CC(=C(C#N)C#N)c3ccccc32)c(C)c1 | 18.4 µM
CCN(CC)c1ccc2cc(-c3csc(-c4ccc(N(C)C)cc4)n3)c(=O)oc2c1 | > 100 µM
COC(=O)[C@]1(C)CC[C@]2(C)CC[C@]3(C)C(=CC(=O)[C@@H]4[C@@]5(C)CCC(=O)NC(C)(C)[C@@H]5CC[C@]43C)[C@@H]2C1 | > 100 µM
COc1ccc2c(c1)C(=O)c1c-2n(CCCNCCO)c(=O)c2cc([N+](=O)[O-])ccc12 | 4.77 µM
C/C(=N\NS(=O)(=O)c1ccccc1)c1ccc[n+]([O-])n1 | > 100 µM
NC(=O)N=Nc1c2ccccc2n2[nH]ccc12 | > 100 µM
CCOC(=O)c1c[nH]c2cc3c(cc2c1=O)CCS3 | > 100 µM
CC1=C(C(=O)NCc2ccccc2)C(c2ccccc2O)C(C(=O)NCc2ccccc2)=C(C)N1 | 45.6 µM
CCO/N=C(/CC)c1ccc(Br)s1 | > 100 µM
CC1SC(c2cccc(Cl)c2)N(NC(=O)C(O)c2ccccc2)C1=O (stereo not given) | > 100 µM
COC(=O)C1=C(O)C(C(=O)OC)[C@@]2(O)[C@@H](C(=O)OC)C(c3ccccc3Cl)C[C@@H]1[C@@H]2C(=O)OC (stereo not given in full) | 38.3 µM
